# Tested on: CAL-51
# EXPERIMENT DESCRIPTION: normalised response (% of control), CellTiter-Glo; higher = more viable cells (100 = DMSO, 0 = benzethonium chloride kill control)
# RECORDED CONDITIONS: incubation time: 72 h
// reported normalised response per item
Give just the number in %; leave the unit off.

> print(dat)
                                   molecule  test.system  recorded.measurement
1  CN1CCN(c2nc(C3=C(c4c[nH]c5ccccc45)C(=O)NC3=O)c3ccccc3n2)CC1 [Sotrastaurin] (1000 nM)       CAL-51                   122

Entry COc1cc2c(N3CCN(C(=O)Nc4ccc(OC(C)C)cc4)CC3)ncnc2cc1OCCCN1CCCCC1 [Tandutinib] (100 nM) , normalised response reported as 96.2

Entry NC(=O)c1cccc2cn(-c3ccc([C@@H]4CCCNC4)cc3)nc12 [MK-4827] (1000 nM) , normalised response reported as 95.2

----------
// reported drug sensitivity score per item
# Test system: MCF-10A
# EXPERIMENT DESCRIPTION: drug sensitivity score (DSS), CellTox Green (DSS (AUC-based score)); higher = stronger drug effect (viability inhibition or cytotoxicity); extreme values may be limits of the assay
# RECORDED CONDITIONS: incubation time: 72 h
Lab note: jot down the number only; don't add units.

COMPOUND	RECORDED MEASUREMENT
COc1cc(Nc2ncc(F)c(Nc3ccc4c(n3)N(COP(=O)(O)O)C(=O)C(C)(C)O4)n2)cc(OC)c1OC [Fostamatinib]	0
NC1(c2ccc(-c3nc4ccn5c(=O)[nH]nc5c4cc3-c3ccccc3)cc2)CCC1 [MK-2206]	0
CN1CCc2c(c3ccccc3n2Cc2ccc(C(=O)NO)cc2)C1 [Tubastatin A]	0
Cc1cc2c(F)c(Oc3ncnn4cc(OC[C@@H](C)O)c(C)c34)ccc2[nH]1 [Brivanib]	0
N[C@@H](Cc1ccc(N(CCCl)CCCl)cc1)C(=O)O [Melphalan]	19.3

Entry CO[C@H]1C[C@@H]2CC[C@@H](C)[C@@](O)(O2)C(=O)C(=O)N2CCCC[C@H]2C(=O)O[C@H]([C@H](C)C[C@@H]2CC[C@@H](O)[C@H](OC)C2)CC(=O)[C@H](C)/C=C(\C)[C@@H](O)[C@@H](OC)C(=O)[C@H](C)C[C@H](C)/C=C/C=C/C=C/1C [Sirolimus] , drug sensitivity score reported as 0

Entry CC(C)NC[C@@H](C(=O)N1CCN(c2ncnc3c2[C@H](C)C[C@H]3O)CC1)c1ccc(Cl)cc1 [GDC-0068] , drug sensitivity score reported as 0

Entry CCN(CC)CCOc1ccc(C(=C(Cl)c2ccccc2)c2ccccc2)cc1 [Clomifene] , drug sensitivity score reported as 3.53

Entry O=C(c1cc(Cc2n[nH]c(=O)c3ccccc23)ccc1F)N1CCN(C(=O)C2CC2)CC1 [Olaparib] , drug sensitivity score reported as 0

----------
# Test system: CAL-148
# EXPERIMENT DESCRIPTION: normalised viability (% of control), CellTiter-Blue; higher = more viable cells (about 100 = DMSO control)
# RECORDED CONDITIONS: 100 nM; incubation time: 72 h
OBSERVED PROPERTY: normalised viability (%)
Give just the number in %; leave the unit off.

Previously resolved entries follow.
> print(dat)
                                   compound     observed.property  recorded.measurement
1  CC(C)C(=O)Nc1ccc([N+](=O)[O-])c(C(F)(F)F)c1 [Flutamide]  normalised viability                   103
2  CN1CCN(c2nc(C3=C(c4c[nH]c5ccccc45)C(=O)NC3=O)c3ccccc3n2)CC1  normalised viability                   119
3  C[C@]12C=CC(=O)C=C1CC[C@@H]1[C@@H]2C(=O)C[C@@]2(C)[C@H]1CC[C@]2(O)C(=O)CO  normalised viability                   104

Entry Nc1nc(Cl)nc2c1ncn2[C@@H]1O[C@H](CO)[C@@H](O)[C@@H]1F , normalised viability reported as 83.3

Entry Cn1nnc2c(C(N)=O)ncn2c1=O [Temozolomide] , normalised viability reported as 93

Entry CC/C(=C(\c1ccccc1)c1ccc(OCCN(C)C)cc1)c1ccccc1 , normalised viability reported as 127

----------
# System: MDA-MB-468
# EXPERIMENT DESCRIPTION: normalised response (% of control), CellTox Green; higher = less cell death (100 = DMSO, 0 = benzethonium chloride kill control)
# RECORDED CONDITIONS: incubation time: 72 h
OBSERVED PROPERTY: normalised response (%)
Give just the number in %; leave the unit off.

Previously resolved entries follow.
COMPOUND	RECORDED MEASUREMENT
Cn1cc(C[C@@H](N)C(=O)O)c2ccccc21 [1-methyl-D-tryptophan] (5000 nM)	53
NC1(c2ccc(-c3nc4ccn5c(=O)[nH]nc5c4cc3-c3ccccc3)cc2)CCC1 [MK-2206] (1000 nM)	147

Measured on MDA-MB-468, Cc1c(N)nc([C@H](CC(N)=O)NC[C@H](N)C(N)=O)nc1C(=O)N[C@H](C(=O)N[C@H](C)[C@@H](O)[C@H](C)C(=O)N[C@H](C(=O)NCCc1nc(-c2nc(C(=O)NCCC[S+](C)C)cs2)cs1)[C@@H](C)O)[C@@H](OC1OC(CO)C(O)C(O)C1OC1OC(CO)C(O)C(OC(N)=O)C1O)c1cnc[nH]1 (stereo partly specified) [Bleomycin] (10000 nM) has a documented normalised response of 201

Measured on MDA-MB-468, O=C(O)CC[C@H]1CC[C@@](c2cc(F)ccc2F)(S(=O)(=O)c2ccc(Cl)cc2)CC1 [MK-0752] (100 nM) has a documented normalised response of 165

Measured on MDA-MB-468, C[C@]12C=CC(=O)C=C1CC[C@@H]1[C@@H]2C(=O)C[C@@]2(C)[C@H]1CC[C@]2(O)C(=O)CO [Prednisone] (1000 nM) has a documented normalised response of 83.2

Measured on MDA-MB-468, CC(C)(C)Cn1c(N)nc2ccc(-c3[nH]c(C(C)(C)C)nc3-c3ccc(F)cc3)nc21 (1000 nM) has a documented normalised response of 113

----------
# Test system: DU-4475
# EXPERIMENT DESCRIPTION: normalised response (% of control), CellTox Green; higher = less cell death (100 = DMSO, 0 = benzethonium chloride kill control)
# RECORDED CONDITIONS: incubation time: 72 h
// reported normalised response per item
Give just the number in %; leave the unit off.

COMPOUND	normalised response, %
CCc1cnn2c(NCc3ccc[n+]([O-])c3)cc(N3CCCC[C@H]3CCO)nc12 [Dinaciclib] (100 nM)	96.3
Cn1nnc2c(C(N)=O)ncn2c1=O [Temozolomide] (1000 nM)	100
CCCc1cc(C)[nH]c(=O)c1CNC(=O)c1cc(-c2ccnc(N3CCN(C)CC3)c2)cc2c1cnn2C(C)C [GSK343] (10000 nM)	92.7
CC(C)C(=O)Nc1ccc([N+](=O)[O-])c(C(F)(F)F)c1 [Flutamide] (10000 nM)	98.6

Entry Cc1c(N)nc([C@H](CC(N)=O)NC[C@H](N)C(N)=O)nc1C(=O)N[C@H](C(=O)N[C@H](C)[C@@H](O)[C@H](C)C(=O)N[C@H](C(=O)NCCc1nc(-c2nc(C(=O)NCCC[S+](C)C)cs2)cs1)[C@@H](C)O)[C@@H](OC1OC(CO)C(O)C(O)C1OC1OC(CO)C(O)C(OC(N)=O)C1O)c1cnc[nH]1 (stereo not given in full) [Bleomycin] (100 nM) , normalised response reported as 98.6

Entry O=C(O)CC[C@H]1CC[C@@](c2cc(F)ccc2F)(S(=O)(=O)c2ccc(Cl)cc2)CC1 [MK-0752] (100 nM) , normalised response reported as 107

Entry CC/C(=C(\c1ccccc1)c1ccc(OCCN(C)C)cc1)c1ccccc1 [Tamoxifen] (100 nM) , normalised response reported as 105

Entry O=C(c1cc(Cc2n[nH]c(=O)c3ccccc23)ccc1F)N1CCN(C(=O)C2CC2)CC1 [Olaparib] (10000 nM) , normalised response reported as 98.5

Entry CC(C)(C)Cn1c(N)nc2ccc(-c3[nH]c(C(C)(C)C)nc3-c3ccc(F)cc3)nc21 (10000 nM) , normalised response reported as 95.7

Entry CO[C@H](C(=O)[C@@H](O)[C@@H](C)O)[C@@H]1Cc2cc3cc(O[C@H]4C[C@@H](O[C@@H]5C[C@@H](O)[C@H](O)[C@@H](C)O5)[C@H](O)[C@@H](C)O4)c(C)c(O)c3c(O)c2C(=O)[C@H]1O[C@H]1C[C@@H](O[C@@H]2C[C@@H](O)[C@@H](O[C@@H]3C[C@](C)(O)[C@H](O)[C@@H](C)O3)[C@@H](C)O2)[C@H](O)[C@@H](C)O1 [Plicamycin] (10000 nM) , normalised response reported as 87.9

Entry CC/C(=C(\c1ccccc1)c1ccc(OCCN(C)C)cc1)c1ccccc1 [Tamoxifen] (1000 nM) , normalised response reported as 105

Entry CO[C@H]1C[C@@H]2CC[C@@H](C)[C@@](O)(O2)C(=O)C(=O)N2CCCC[C@H]2C(=O)O[C@H]([C@H](C)C[C@@H]2CC[C@@H](O)[C@H](OC)C2)CC(=O)[C@H](C)/C=C(\C)[C@@H](O)[C@@H](OC)C(=O)[C@H](C)C[C@H](C)/C=C/C=C/C=C/1C [Sirolimus] (10 nM) , normalised response reported as 102

Entry CCc1c(C(=O)C(N)=O)c2c(OCC(=O)O)cccc2n1Cc1ccccc1 [Varespladib] (100 nM) , normalised response reported as 104

Entry CN1CCc2c(c3ccccc3n2Cc2ccc(C(=O)NO)cc2)C1 [Tubastatin A] (1000 nM) , normalised response reported as 105

Entry Cc1cc2c(F)c(Oc3ncnn4cc(OC[C@@H](C)O)c(C)c34)ccc2[nH]1 [Brivanib] (10 nM) , normalised response reported as 104

Entry CC[C@H](CC#N)OC(=O)N[C@@H](C)c1cccc(NC(=O)Nc2ccc(-c3cnco3)c(OC)c2)c1 [AVN944] (100 nM) , normalised response reported as 97.8

Entry Nc1nc(Cl)nc2c1ncn2[C@@H]1O[C@H](CO)[C@@H](O)[C@@H]1F [Clofarabine] (100 nM) , normalised response reported as 114

Entry C[C@]12C=CC(=O)C=C1CC[C@@H]1[C@@H]2C(=O)C[C@@]2(C)[C@H]1CC[C@]2(O)C(=O)CO [Prednisone] (10000 nM) , normalised response reported as 103

Entry COc1cc2c(cc1-c1c(C)noc1C)ncc1[nH]c(=O)n([C@H](C)c3ccccn3)c12 [I-BET151] (100 nM) , normalised response reported as 103

Entry CCN(CC)CCOc1ccc(C(=C(Cl)c2ccccc2)c2ccccc2)cc1 [Clomifene] (10000 nM) , normalised response reported as 53.4

Entry CC(C)NC[C@@H](C(=O)N1CCN(c2ncnc3c2[C@H](C)C[C@H]3O)CC1)c1ccc(Cl)cc1 [GDC-0068] (10000 nM) , normalised response reported as 96.6

Entry NC1(c2ccc(-c3nc4ccn5c(=O)[nH]nc5c4cc3-c3ccccc3)cc2)CCC1 [MK-2206] (10 nM) , normalised response reported as 103

Entry C[C@@H]1C[C@H]2[C@@H]3CCC4=CC(=O)C=C[C@]4(C)[C@@]3(F)[C@@H](O)C[C@]2(C)[C@@]1(O)C(=O)CO [Dexamethasone] (10000 nM) , normalised response reported as 97.4

Entry CC(C)(C)Cn1c(N)nc2ccc(-c3[nH]c(C(C)(C)C)nc3-c3ccc(F)cc3)nc21 (100 nM) , normalised response reported as 103

Entry COc1cc2c(N3CCN(C(=O)Nc4ccc(OC(C)C)cc4)CC3)ncnc2cc1OCCCN1CCCCC1 [Tandutinib] (10 nM) , normalised response reported as 98
